Reference for the values: paper PMC6327993

# experiment notes: DPPH radical scavenging activity
# test context: 62.5 μg/ml
Quick rule: Antioxidant activity, % of at least 7% means True, below that means False.

Prompt line: Determine whether measured Antioxidant activity, % meets or exceeds 7% for Cc1c(C)c2c(c(C)c1O)CC[C@@](C)(CCC[C@H](C)CCC[C@H](C)CCCC(C)C)O2 [α-Toc., α-tocopherol, reference compound]
Response line: True

Prompt line: Determine whether measured Antioxidant activity, % meets or exceeds 7% for Cc1ccc2nc(NC(=O)CNC(=O)OC(C)(C)C)sc2c1 [Compound 2]
Response line: False

Prompt line: Determine whether measured Antioxidant activity, % meets or exceeds 7% for COc1ccc(O)c(C(C)(C)C)c1 [BHA, reference compound]
Response line: True

Prompt line: Determine whether measured Antioxidant activity, % meets or exceeds 7% for CCOc1ccc2nc(NC(=O)CNC(=O)OCc3ccccc3)sc2c1 [Compound 5]
Response line: True

Prompt line: Determine whether measured Antioxidant activity, % meets or exceeds 7% for CS(=O)(=O)c1ccc2nc(NC(=O)CNC(=O)OCC3c4ccccc4-c4ccccc43)sc2c1 [Compound 10]
Response line: True

Prompt line: Determine whether measured Antioxidant activity, % meets or exceeds 7% for Cc1ccc2nc(NC(=O)CNC(=O)OCC3c4ccccc4-c4ccccc43)sc2c1 [Compound 9]
Response line: False

Prompt line: Determine whether measured Antioxidant activity, % meets or exceeds 7% for Cc1ccc2nc(NC(=O)CNC(=O)OCc3ccccc3)sc2c1 [Compound 1]
Response line: True
